Source of measurements: paper PMC6278378

Entries and their PInhibition (Experimental Data) values follow.
ASSAY TARGET: T1, CD4 (Homo sapiens, UniProt P01730)
T1 construct: endogenous in cells; host or cells: SUP-T1 cells
TEST DESCRIPTION: CD4 competitive binding assay (FITC anti-human CD4 antibody, SUP-T1 cells)
CONDITION CONTEXT: transformed from % inhibition at 100 μM; presented as -ln
Reply: number alone, nothing else.

Here's what some known entries look like.
[
  {
    "MOLECULE": "O=C(O)Cc1cccc2c(=O)cc(-c3ccccc3)oc12",
    "RECORDED NUMBER": 3.702
  },
  {
    "MOLECULE": "CC(=O)/C=C(\\c1ccccc1)c1c(O)c2ccccc2oc1=O",
    "RECORDED NUMBER": 3.273
  },
  {
    "MOLECULE": "Cc1cc2c(=O)cc(-c3ccccc3)oc2c(C(=O)O)c1C",
    "RECORDED NUMBER": 4.024
  },
  {
    "MOLECULE": "O=C(O)Cc1cccc2c(=O)cc(C3CCCCC3)oc12",
    "RECORDED NUMBER": 3.541
  }
]

Record for O=C(O)Cc1cc(=O)oc2cc(O)ccc12 [Compound 19] under target or system T1, CD4 (Homo sapiens, UniProt P01730): PInhibition (Experimental Data) reported as 3.668
